The reported numbers originate from BindingDB's records for doi:10.1021/acs.jmedchem.6b00608.

biological target: Tyrosine-protein kinase receptor UFO (Homo sapiens); assay: Inhibition of human recombinant AXL incubated for 1 to 1.5 hrs by FRET based Z'-Lyte kinase assay
Sequence (P30530 whole entry): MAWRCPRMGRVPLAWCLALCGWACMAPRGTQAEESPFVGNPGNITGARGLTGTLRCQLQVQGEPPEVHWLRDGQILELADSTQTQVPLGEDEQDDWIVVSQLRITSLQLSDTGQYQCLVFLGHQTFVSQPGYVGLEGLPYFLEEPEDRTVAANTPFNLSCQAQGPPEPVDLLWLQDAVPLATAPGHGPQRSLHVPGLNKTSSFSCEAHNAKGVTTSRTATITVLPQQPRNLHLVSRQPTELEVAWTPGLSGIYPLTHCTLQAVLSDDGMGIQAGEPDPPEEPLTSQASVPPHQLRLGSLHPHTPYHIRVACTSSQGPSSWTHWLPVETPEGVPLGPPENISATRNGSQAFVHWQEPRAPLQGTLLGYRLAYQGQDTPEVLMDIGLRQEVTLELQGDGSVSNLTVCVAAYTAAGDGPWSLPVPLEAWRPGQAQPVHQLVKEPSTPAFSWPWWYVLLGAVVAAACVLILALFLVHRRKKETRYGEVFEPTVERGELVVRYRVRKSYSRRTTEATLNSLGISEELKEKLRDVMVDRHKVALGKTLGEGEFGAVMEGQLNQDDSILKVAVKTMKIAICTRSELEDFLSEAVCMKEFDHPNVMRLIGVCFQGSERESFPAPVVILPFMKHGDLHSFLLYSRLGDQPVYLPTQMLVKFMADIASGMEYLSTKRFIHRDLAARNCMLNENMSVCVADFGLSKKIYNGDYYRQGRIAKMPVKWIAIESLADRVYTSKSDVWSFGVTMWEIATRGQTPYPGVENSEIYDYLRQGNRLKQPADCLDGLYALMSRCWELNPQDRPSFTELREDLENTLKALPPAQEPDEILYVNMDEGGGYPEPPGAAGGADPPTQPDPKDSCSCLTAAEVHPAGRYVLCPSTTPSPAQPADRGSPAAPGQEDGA
experimental-endpoint: IC50

The following molecules have reported results that may help.
* Cc1c(C(=O)Nc2ccc(Oc3ncnc4[nH]cc(-c5ccccc5)c34)c(F)c2)c(=O)c2cc3ccccc3cc2n1C | > 10 µM
* Cc1c(C(=O)Nc2ccc(Oc3ncnc4[nH]cc(-c5ccccc5)c34)c(F)c2)c(=O)c2cc(F)ccc2n1C | > 10 µM

Now examine the next entry.
I'd like to know its IC50. The molecule in question is "Cc1c(C(=O)Nc2ccc(Oc3ncnc4[nH]cc(-c5ccccc5)c34)c(F)c2)c(=O)c2cc(-c3ccccc3)ccc2n1C" > 10 µM
